# system-tested: SaCoaBC (bifunctional CoaBC protein, phosphopantothenoylcysteine synthetase) (Staphylococcus aureus)
# Sequence (Q2G268 1-399): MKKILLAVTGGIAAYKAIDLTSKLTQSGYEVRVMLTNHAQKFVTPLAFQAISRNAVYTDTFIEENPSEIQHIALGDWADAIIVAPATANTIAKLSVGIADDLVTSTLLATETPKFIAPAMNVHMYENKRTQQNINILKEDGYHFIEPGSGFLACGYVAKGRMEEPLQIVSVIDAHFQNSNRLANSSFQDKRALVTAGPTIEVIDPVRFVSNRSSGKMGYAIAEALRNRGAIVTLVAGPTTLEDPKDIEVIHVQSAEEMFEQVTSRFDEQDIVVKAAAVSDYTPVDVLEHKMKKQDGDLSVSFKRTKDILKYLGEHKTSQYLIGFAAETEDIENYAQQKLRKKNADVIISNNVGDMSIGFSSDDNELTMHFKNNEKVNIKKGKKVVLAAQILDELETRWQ
# test-description: progress curve inhibition analysis
reported-metric: pKi
Numbers only, as −log10 of the molar value.

Identify measured pKi corresponding to CC(C)(COP(=O)(O)O)[C@@H](O)C(=O)N/C=C/C(=O)OP(=O)(O)OC[C@H]1O[C@@H](n2ccc(N)nc2=O)[C@H](O)[C@@H]1O
7.89
